Target: Macaca fascicularis IL-36R extracellular domain expressed with a C-terminal myc-myc-hexahistidine tag (mfIL-36R-MMH) (Macaca fascicularis)
Test: SPR Biacore 4000, mAb captured on anti-hFc, 37C
As shown below, each of these binders has a reported 100 nM mfIL-36R-MMH Bound (RU) value.
measured-metric: 100 nM mfIL-36R-MMH Bound (RU)

>  <binder>
H4H14709P (antibody, human IgG4 S228P, kappa, V domains shown) VH: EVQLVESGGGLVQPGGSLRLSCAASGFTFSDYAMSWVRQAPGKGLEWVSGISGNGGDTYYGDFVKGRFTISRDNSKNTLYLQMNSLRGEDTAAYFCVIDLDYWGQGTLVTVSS VL: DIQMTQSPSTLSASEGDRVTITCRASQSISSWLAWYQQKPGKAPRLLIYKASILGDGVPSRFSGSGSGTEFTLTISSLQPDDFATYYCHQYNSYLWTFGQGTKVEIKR

>  <result-value>
66

$$$$
>  <binder>
H4H14757P (antibody, human IgG4 S228P, kappa, V domains shown) VH: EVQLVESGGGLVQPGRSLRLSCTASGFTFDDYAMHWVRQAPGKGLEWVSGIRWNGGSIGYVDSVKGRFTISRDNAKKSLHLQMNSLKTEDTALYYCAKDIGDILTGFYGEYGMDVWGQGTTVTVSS VL: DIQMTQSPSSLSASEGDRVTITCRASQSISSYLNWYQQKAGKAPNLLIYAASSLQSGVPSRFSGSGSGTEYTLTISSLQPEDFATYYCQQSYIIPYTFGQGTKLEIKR

>  <result-value>
4

$$$$
>  <binder>
H4H14700P2 (antibody, human IgG4 S228P, kappa, V domains shown) VH: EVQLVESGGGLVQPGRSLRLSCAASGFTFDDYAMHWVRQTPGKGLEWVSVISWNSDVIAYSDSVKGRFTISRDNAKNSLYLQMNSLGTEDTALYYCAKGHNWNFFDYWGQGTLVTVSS VL: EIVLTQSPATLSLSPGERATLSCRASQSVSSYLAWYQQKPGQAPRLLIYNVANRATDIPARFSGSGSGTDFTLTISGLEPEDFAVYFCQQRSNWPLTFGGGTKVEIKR

>  <result-value>
67

$$$$
>  <binder>
H4H14728P (antibody, human IgG4 S228P, kappa, V domains shown) VH: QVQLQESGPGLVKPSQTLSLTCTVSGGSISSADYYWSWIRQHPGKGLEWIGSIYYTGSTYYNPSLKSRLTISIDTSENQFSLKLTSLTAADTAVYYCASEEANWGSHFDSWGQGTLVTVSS VL: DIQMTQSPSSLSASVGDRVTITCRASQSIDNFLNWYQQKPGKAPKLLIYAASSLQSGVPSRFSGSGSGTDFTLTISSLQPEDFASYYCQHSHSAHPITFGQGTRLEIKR

>  <result-value>
77

$$$$
>  <binder>
H4H14731P (antibody, human IgG4 S228P, kappa, V domains shown) VH: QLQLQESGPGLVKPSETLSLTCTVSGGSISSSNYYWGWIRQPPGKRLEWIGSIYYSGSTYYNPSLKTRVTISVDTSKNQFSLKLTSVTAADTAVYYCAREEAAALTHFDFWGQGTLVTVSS VL: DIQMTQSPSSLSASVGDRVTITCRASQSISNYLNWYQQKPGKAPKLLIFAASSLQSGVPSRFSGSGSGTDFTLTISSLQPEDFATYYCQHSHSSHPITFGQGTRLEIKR

>  <result-value>
41

$$$$
>  <binder>
H4H14758P (antibody, human IgG4 S228P, kappa, V domains shown) VH: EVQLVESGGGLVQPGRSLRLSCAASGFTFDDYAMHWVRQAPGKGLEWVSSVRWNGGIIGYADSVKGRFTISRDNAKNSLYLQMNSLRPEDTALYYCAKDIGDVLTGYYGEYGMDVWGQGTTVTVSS VL: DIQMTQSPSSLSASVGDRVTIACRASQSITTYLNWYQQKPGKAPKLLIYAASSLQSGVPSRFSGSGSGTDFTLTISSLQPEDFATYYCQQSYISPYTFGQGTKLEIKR

>  <result-value>
-1

$$$$
>  <binder>
H4H14708P2 (antibody, human IgG4 S228P, kappa, V domains shown) VH: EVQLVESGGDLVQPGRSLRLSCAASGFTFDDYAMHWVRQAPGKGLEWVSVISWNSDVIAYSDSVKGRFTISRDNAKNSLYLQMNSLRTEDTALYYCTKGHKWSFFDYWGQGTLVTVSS VL: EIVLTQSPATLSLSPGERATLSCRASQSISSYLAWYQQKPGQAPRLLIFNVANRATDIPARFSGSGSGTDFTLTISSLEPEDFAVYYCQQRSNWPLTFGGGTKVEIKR

>  <result-value>
75

$$$$
